Source: ChEMBL document CHEMBL1124516

System: Mus musculus
Assay: The ratio of the survival time of treated to control animals x 100 in mice bearing B16 Melanoma, when compound (150 mg/kg) was administered intraperitoneally
Assay type: functional
value.kind: Activity

Please review the entries below; each comes with its answer.
O=C1C(N2CC2)=C(N2CC2)C(=O)c2c(OS(=O)(=O)c3cccc4cccnc34)cccc21
239
O=C1C(N2CC2)=C(N2CC2)C(=O)c2c(OS(=O)(=O)c3ccccc3)cccc21
148
O=C1C(N2CC2)=C(N2CC2)C(=O)c2c(OS(=O)(=O)c3ccc(I)cc3)cccc21
141
O=C1C(N2CC2)=C(N2CC2)C(=O)c2c(OS(=O)(=O)c3ccc(F)cc3)cccc21
177
O=C1C(N2CC2)=C(N2CC2)C(=O)c2c(OS(=O)(=O)c3cccs3)cccc21
77
O=C1C(N2CC2)=C(N2CC2)C(=O)c2c(OS(=O)(=O)c3ccc(Br)cc3)cccc21
151

Form field, Activity with Mus musculus, item O=C1C(N2CC2)=C(N2CC2)C(=O)c2c(OS(=O)(=O)c3ccc(Cl)cc3)cccc21 : 178

Form field, Activity with Mus musculus, item Cc1ccc(S(=O)(=O)Oc2cccc3c2C(=O)C(N2CC2)=C(N2CC2)C3=O)cc1 : 141

Form field, Activity with Mus musculus, item COc1ccc(S(=O)(=O)Oc2cccc3c2C(=O)C(N2CC2)=C(N2CC2)C3=O)cc1 : 165

* * *

Tested on: Mus musculus
Assay: The ratio of the survival time of treated to control animals x 100 in mice bearing B16 Melanoma, when compound (100 mg/kg) was administered intraperitoneally
Assay type: functional
# Activity per record follows
// print number alone

COc1ccc(S(=O)(=O)Oc2cccc3c2C(=O)C(N2CC2)=C(N2CC2)C3=O)cc1
154
O=C1C(N2CC2)=C(N2CC2)C(=O)c2c(OS(=O)(=O)c3ccc(I)cc3)cccc21
138
O=C1C(N2CC2)=C(N2CC2)C(=O)c2c(OS(=O)(=O)c3cccs3)cccc21
161
O=C1C(N2CC2)=C(N2CC2)C(=O)c2c(OS(=O)(=O)c3cccc4cccnc34)cccc21
219
O=C1C(N2CC2)=C(N2CC2)C(=O)c2c(OS(=O)(=O)c3ccc(Br)cc3)cccc21
153
Cc1ccc(S(=O)(=O)Oc2cccc3c2C(=O)C(N2CC2)=C(N2CC2)C3=O)cc1
153
O=C1C(N2CC2)=C(N2CC2)C(=O)c2c(OS(=O)(=O)c3ccc(Cl)cc3)cccc21
153
O=C1C(N2CC2)=C(N2CC2)C(=O)c2c(OS(=O)(=O)c3ccccc3)cccc21
180

From here, focus on the item given below.
Form field, Activity with Mus musculus, item O=C1C(N2CC2)=C(N2CC2)C(=O)c2c(OS(=O)(=O)c3ccc(F)cc3)cccc21 : 182

* * *

Test system: Mus musculus
Test: The ratio of the survival time of treated to control animals x 100 in mice bearing B16 Melanoma, when compound (50 mg/kg) was administered intraperitoneally
Type: functional
value.kind: Activity
// print number alone

Please review the entries below; each comes with its answer.
Cc1ccc(S(=O)(=O)Oc2cccc3c2C(=O)C(N2CC2)=C(N2CC2)C3=O)cc1
144
O=C1C(N2CC2)=C(N2CC2)C(=O)c2c(OS(=O)(=O)c3ccc(I)cc3)cccc21
132

From here, focus on the item given below.
Activity measured on O=C1C(N2CC2)=C(N2CC2)C(=O)c2c(OS(=O)(=O)c3ccc(F)cc3)cccc21 = 159

* * *

Test system: Mus musculus
Test: Number of mice survived for a period greater than 50 days when a dose of 20 mg/Kg is administered intraperitoneally; tested in 5 mice
Assay type: functional
value.kind: Survivals
// print number alone

O=C1C(N2CC2)=C(N2CC2)C(=O)c2c(OS(=O)(=O)c3ccc(Br)cc3)cccc21
0
Cc1ccc(S(=O)(=O)Oc2cccc3c2C(=O)C=C(N2CC2)C3=O)cc1
0
O=C1C(N2CC2)=C(N2CC2)C(=O)c2c(OS(=O)(=O)c3ccccc3)cccc21
5
O=C1C(N2CC2)=C(N2CC2)C(=O)c2c(OS(=O)(=O)c3ccc([N+](=O)[O-])cc3[N+](=O)[O-])cccc21
0
CCc1ccc(S(=O)(=O)Oc2cccc3c2C(=O)C(N2CC2)=C(N2CC2)C3=O)cc1
0

Survivals measured on O=C1C(N2CC2)=C(N2CC2)C(=O)c2c(OS(=O)(=O)c3cccc4cccnc34)cccc21 = 3

Survivals measured on O=C1C(N2CC2)=C(N2CC2)C(=O)c2c(OS(=O)(=O)CCCCl)cccc21 = 0

Survivals measured on O=C1C(N2CC2)=C(N2CC2)C(=O)c2c(OS(=O)(=O)c3ccc([N+](=O)[O-])cc3)cccc21 = 4

Survivals measured on CC(C)c1cc(C(C)C)c(S(=O)(=O)Oc2cccc3c2C(=O)C(N2CC2)=C(N2CC2)C3=O)c(C(C)C)c1 = 0

Survivals measured on CC(C)(C)c1ccc(S(=O)(=O)Oc2cccc3c2C(=O)C(N2CC2)=C(N2CC2)C3=O)cc1 = 0

Survivals measured on O=C1C(N2CC2)=C(N2CC2)C(=O)c2c(OS(=O)(=O)c3ccc(Cl)cc3)cccc21 = 0

Survivals measured on CS(=O)(=O)Oc1cccc2c1C(=O)C(N1CC1)=C(N1CC1)C2=O = 0
